Every entry's value here was drawn from patent US20250179027A1.

Readings of IC50 for the listed molecules
Molecular target: phosphorylated BTK Y223 in NIH/3T3 BTK C481S cells (Homo sapiens, UniProt Q06187, C481S)
Sequence (Q06187 whole entry C481S): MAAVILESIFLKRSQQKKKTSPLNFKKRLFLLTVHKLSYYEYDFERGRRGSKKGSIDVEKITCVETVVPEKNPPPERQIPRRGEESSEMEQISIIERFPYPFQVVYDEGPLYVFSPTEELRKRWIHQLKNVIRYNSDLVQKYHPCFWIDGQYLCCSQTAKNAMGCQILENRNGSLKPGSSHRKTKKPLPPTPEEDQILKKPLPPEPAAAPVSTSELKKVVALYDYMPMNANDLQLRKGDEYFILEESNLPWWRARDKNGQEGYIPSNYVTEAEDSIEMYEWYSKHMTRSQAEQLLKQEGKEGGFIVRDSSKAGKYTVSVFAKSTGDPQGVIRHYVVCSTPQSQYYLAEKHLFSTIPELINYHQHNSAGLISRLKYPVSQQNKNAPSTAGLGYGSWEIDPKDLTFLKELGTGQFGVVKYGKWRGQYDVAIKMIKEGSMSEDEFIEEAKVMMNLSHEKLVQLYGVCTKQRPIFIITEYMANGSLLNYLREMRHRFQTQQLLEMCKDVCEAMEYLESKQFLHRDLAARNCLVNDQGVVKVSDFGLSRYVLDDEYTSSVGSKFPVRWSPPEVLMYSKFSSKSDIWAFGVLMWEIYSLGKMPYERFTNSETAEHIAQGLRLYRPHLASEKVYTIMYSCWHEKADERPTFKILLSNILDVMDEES
Assay: Phosphor-BTK(Y223) assay, NIH/3T3 BTK C481S cells
Details: phosphorylated BTK Y223, NIH/3T3 BTK C481S cells; read-out: NIH/3T3 BTK-C481S pBTK IC50
Description: The purpose of this assay is to simply, quickly and directly detect the endogenous level of BTK in cells. […] Biotek cytation3.0 microplate reader was used to read the plate at 665 nm and 620 nm, and the ratio of 665/620 nm per well was calculated. IC50 was calculated using GraphPad Prism 7.0 software. […]

Worked cases, IC50 given:
MOLECULE	REPORTED MEASUREMENT
COc1ccc(F)cc1C(=O)NCc1ccc(-c2nn(C3CCC(O)C3)c3c(=O)[nH]nc(N)c23)cc1 (stereo not shown) [Example 41]	50 to 100 nM
COc1ccc(F)cc1C(=O)NCc1ccc(-c2cc(C3CCC(CO)OC3)n3ncnc(N)c23)cc1 (single isomer, unassigned) [Example 60]	≤ 25 nM
COc1ccc(F)cc1C(=O)NCc1ccc(-c2nn(C3CCCC(O)C3)c(N)c2C(N)=O)cc1 (stereo not shown) [Example 1]	100 to 500 nM

Enter reported IC50 observed with phosphorylated BTK Y223 in NIH/3T3 BTK C481S cells (Homo sapiens, UniProt Q06187, C481S) for COc1ccc(F)cc1C(=O)NCc1ccc(-n2cc(C3CCC(CO)OC3)c3ncnc(N)c32)cc1 (single isomer, unassigned) [Example 52] 100 to 500 nM

###

Molecular target: phosphorylated BTK Y223 in NIH/3T3 BTK WT cells (Homo sapiens)
Assay: Phosphor-BTK(Y223) assay, NIH/3T3 BTK WT cells
Details: phosphorylated BTK Y223, NIH/3T3 BTK WT cells; read-out: NIH/3T3 BTK-WT pBTK IC50
RESULT TYPE: IC50

MOLECULE	IC50
COc1ccc(F)cc1C(=O)NCc1ccc(-c2nn(C3CCC(O)CC3)c3ncnc(N)c23)cc1 (stereo not drawn)	≤ 25 nM
COc1ccc(F)cc1C(=O)NCc1ccc(-c2nn(C3CCC(CO)OC3)c(N)c2C(N)=O)cc1 (stereo not drawn) [Example 12]	100 to 500 nM

Shift focus to the following entry.
Quick one: IC50 of COc1ccc(F)cc1C(=O)NCc1ccc(-c2nn(C3CCCC(O)C3)c3c(=O)[nH]nc(N)c23)cc1 (stereo not drawn) ? 50 to 100 nM

###

Molecular target: phosphorylated BTK Y223 in NIH/3T3 BTK WT cells (Homo sapiens, UniProt Q06187)
Construct: expressed in transfected cells; host or cells: NIH/3T3 (mouse fibroblasts) engineered to express BTK WT
Sequence (Q06187 whole entry): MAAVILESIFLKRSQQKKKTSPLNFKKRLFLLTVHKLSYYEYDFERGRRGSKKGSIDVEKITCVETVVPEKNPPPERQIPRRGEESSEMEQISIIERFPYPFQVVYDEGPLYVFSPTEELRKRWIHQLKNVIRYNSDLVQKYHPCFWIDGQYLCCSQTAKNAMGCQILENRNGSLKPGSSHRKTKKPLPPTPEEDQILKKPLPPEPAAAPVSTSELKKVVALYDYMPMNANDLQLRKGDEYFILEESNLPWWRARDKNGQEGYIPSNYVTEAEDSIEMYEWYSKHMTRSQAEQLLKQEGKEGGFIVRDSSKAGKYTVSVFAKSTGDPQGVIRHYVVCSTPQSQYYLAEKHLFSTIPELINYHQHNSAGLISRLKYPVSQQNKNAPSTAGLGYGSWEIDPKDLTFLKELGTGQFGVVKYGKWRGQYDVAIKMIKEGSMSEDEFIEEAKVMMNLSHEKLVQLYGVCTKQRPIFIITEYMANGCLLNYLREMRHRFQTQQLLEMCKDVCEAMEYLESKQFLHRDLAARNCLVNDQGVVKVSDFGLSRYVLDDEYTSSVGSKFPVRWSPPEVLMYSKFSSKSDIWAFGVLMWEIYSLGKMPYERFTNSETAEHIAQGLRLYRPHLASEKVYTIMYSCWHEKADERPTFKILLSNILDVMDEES
Test: Phosphor-BTK(Y223) assay, NIH/3T3 BTK WT cells
Format: cell-based
Conditions: phosphorylated BTK Y223, NIH/3T3 BTK WT cells; read-out: NIH/3T3 BTK-WT pBTK IC50
Procedure: The purpose of this assay is to simply, quickly and directly detect the endogenous level of BTK in cells. […] Biotek cytation3.0 microplate reader was used to read the plate at 665 nm and 620 nm, and the ratio of 665/620 nm per well was calculated. IC50 was calculated using GraphPad Prism 7.0 software. […]
pIC50: −log10 of the molar value.
RESULT TYPE: pIC50

Worked cases, pIC50 given:
MOLECULE	pIC50
COc1ccc(F)cc1C(=O)NCc1ccc(-c2nn(C3CCC(O)C3)c3c(=O)[nH]nc(N)c23)cc1 (centres unmarked) [Example 41]	7.30 to 7.60
COc1ccc(F)cc1C(=O)NCc1ccc(-c2nn(C3CCC(O)C3)c3ncnc(N)c23)cc1 (single isomer, unassigned) [Example 34]	≥ 7.60
COc1ccc(F)cc1C(=O)NCc1ccc(-c2nn(C3CCC(O)C3)c3ncnc(N)c23)cc1 (single isomer, unassigned) [Example 31]	≥ 7.60
COc1ccc(F)cc1C(=O)NCc1ccc(-c2nn([C@@H]3C=C[C@@H](O)C3)c3ncnc(N)c23)cc1 (single isomer, unassigned) [Example 37]	7.30 to 7.60
COc1ccc(F)cc1C(=O)NCc1ccc(-c2nn(C3CCCC(O)C3)c3ncnc(N)c23)cc1 (single isomer, unassigned) [Example 6]	≥ 7.60
COc1ccc(F)cc1C(=O)NCc1ccc(-c2nc(C3CCCC(O)C3)n3ccnc(N)c23)cc1 (single isomer, unassigned) [Example 21]	7.30 to 7.60
COc1ccc(F)cc1C(=O)NCc1ccc(-c2nn(C3CCCC(O)C3)c3ncnc(N)c23)cc1 (single isomer, unassigned) [Example 7]	≥ 7.60
COc1ccc(F)cc1C(=O)NCc1ccc(-c2nn(C3CCCC(C)(O)C3)c3ncnc(N)c23)cc1 (single isomer, unassigned) [Example 23]	7.30 to 7.60

Quick one: pIC50 of COc1ccc(F)cc1C(=O)NCc1ccc(-c2nn(C3CCC(O)C3)c3ncnc(N)c23)cc1 (single isomer, unassigned) [Example 35] ? ≥ 7.60

Quick one: pIC50 of COc1ccc(F)cc1C(=O)NCc1ccc(-c2nn(C3CCC(O)C3)c3c(=O)[nH]nc(N)c23)cc1 (centres unmarked) [Example 42] ? 7.00 to 7.30

Quick one: pIC50 of COc1ccc(F)cc1C(=O)NCc1ccc(-c2nn(C3CCC(O)C3)c3ncnc(N)c23)cc1 (single isomer, unassigned) [Example 36] ? ≥ 7.60

Quick one: pIC50 of COc1ccc(F)cc1C(=O)NCc1ccc(-c2nn(C3CCCC(C)(O)C3)c3ncnc(N)c23)cc1 (single isomer, unassigned) [Example 26] ? 7.30 to 7.60

Quick one: pIC50 of COc1ccc(F)cc1C(=O)NCc1ccc(-c2cc(C3CCC(CO)OC3)n3ncnc(N)c23)cc1 (centres unmarked) [Example 58] ? ≥ 7.60

Quick one: pIC50 of COc1ccc(F)cc1C(=O)NCc1ccc(-c2nn([C@H]3CC[C@@H](O)CC3)c3ncnc(N)c23)cc1 ? ≥ 7.60

Quick one: pIC50 of COc1ccc(F)cc1C(=O)NCc1ccc(-c2nn(C3CCCCC(O)C3)c3ncnc(N)c23)cc1 (centres unmarked) ? 7.30 to 7.60

Quick one: pIC50 of COc1ccc(F)cc1C(=O)NCc1ccc(-c2nn(C3CCC(CO)OC3)c3ncnc(N)c23)cc1 (single isomer, unassigned) [Example 18] ? ≥ 7.60

Quick one: pIC50 of COc1ccc(F)cc1C(=O)NCc1ccc(-c2nn(C3CCC(CO)OC3)c3ncnc(N)c23)cc1 (single isomer, unassigned) [Example 17] ? 6.30 to 7.00

Quick one: pIC50 of COc1ccc(F)cc1C(=O)NCc1ccc(-c2nn(C3CCC(CO)OC3)c3ncnc(N)c23)cc1 (single isomer, unassigned) [Example 16] ? 7.00 to 7.30

Quick one: pIC50 of COc1ccc(F)cc1C(=O)NCc1ccc(-c2nn([C@H]3CC[C@@H](O)CC3)c3c(=O)[nH]nc(N)c23)cc1 ? 7.00 to 7.30

Quick one: pIC50 of COc1ccc(F)cc1C(=O)NCc1ccc(-c2nn([C@H]3CC[C@@H](CO)CC3)c3ncnc(N)c23)cc1 ? ≥ 7.60
